Assay Summary: Transdermal potential: plasma pharmacokinetics via topical, intravenous and intradermal routes in rats
Type: in vivo, SD rats
Measurement Parameters: rat, topical or ocular, 5 mg/kg; topical application, 5 mpk, male SD rats, phosphate salt form, plasma
Quantity: Cmax (ng/mL)

{"Compound": "Oc1cccc(Nc2ccnc3cc(-c4cccc(CN5CCOCC5)c4)sc23)c1 [thienopyridine compound]", "Reading": 10.4}

###

Assay Summary: Transdermal potential: plasma pharmacokinetics via topical, intravenous and intradermal routes in rats
Format: in vivo, SD rats
Measurement Parameters: rat, 5 mg/kg; intravenous (iv), 5 mpk, male SD rats, phosphate salt form, plasma

{"Molecular String": "Oc1cccc(Nc2ccnc3cc(-c4cccc(CN5CCOCC5)c4)sc23)c1", "AUC(0-inf) (ng·h/mL)": 619}

###

Assay Summary: Transdermal potential: plasma pharmacokinetics via topical, intravenous and intradermal routes in rats
Assay type: in vivo, SD rats
Measurement Parameters: rat, 5 mg/kg; intravenous (iv), 5 mpk, male SD rats, phosphate salt form, plasma

{"Molecular String": "Oc1cccc(Nc2ccnc3cc(-c4cccc(CN5CCOCC5)c4)sc23)c1", "half-life": "164 min"}
